// reported inhibition per item
- Tested on: Platelet-derived growth factor receptor alpha (Homo sapiens), P16234 [V561D]
- Sequence (P16234 whole entry V561D): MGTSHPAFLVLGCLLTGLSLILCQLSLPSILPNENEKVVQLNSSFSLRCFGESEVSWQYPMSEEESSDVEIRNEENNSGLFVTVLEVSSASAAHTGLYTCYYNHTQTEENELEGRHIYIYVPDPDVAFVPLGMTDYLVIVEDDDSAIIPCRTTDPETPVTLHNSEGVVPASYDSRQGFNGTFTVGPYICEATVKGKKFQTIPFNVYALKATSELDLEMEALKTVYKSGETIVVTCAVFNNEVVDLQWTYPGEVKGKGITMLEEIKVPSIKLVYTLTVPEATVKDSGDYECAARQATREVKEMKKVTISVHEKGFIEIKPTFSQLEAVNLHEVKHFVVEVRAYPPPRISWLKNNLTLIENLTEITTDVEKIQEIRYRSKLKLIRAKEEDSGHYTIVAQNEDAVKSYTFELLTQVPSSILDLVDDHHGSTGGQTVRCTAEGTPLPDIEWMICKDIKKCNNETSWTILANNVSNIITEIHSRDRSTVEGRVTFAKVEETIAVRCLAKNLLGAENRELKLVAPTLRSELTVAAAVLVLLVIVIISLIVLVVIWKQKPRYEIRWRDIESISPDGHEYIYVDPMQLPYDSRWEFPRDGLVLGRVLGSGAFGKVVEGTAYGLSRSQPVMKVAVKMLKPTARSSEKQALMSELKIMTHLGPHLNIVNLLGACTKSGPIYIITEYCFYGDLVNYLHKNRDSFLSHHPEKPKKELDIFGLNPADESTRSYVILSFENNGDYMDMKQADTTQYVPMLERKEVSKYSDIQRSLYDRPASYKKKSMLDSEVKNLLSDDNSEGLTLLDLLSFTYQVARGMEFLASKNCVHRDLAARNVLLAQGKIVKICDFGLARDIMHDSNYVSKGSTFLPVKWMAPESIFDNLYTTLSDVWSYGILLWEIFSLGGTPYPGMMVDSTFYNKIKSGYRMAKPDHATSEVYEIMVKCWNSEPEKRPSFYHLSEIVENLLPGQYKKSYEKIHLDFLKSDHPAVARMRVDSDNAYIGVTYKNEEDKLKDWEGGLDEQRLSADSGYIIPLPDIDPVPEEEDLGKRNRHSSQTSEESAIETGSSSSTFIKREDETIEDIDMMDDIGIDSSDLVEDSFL
- applied conditions: at 1 µM
Remember to follow the number with its unit.

INSERT INTO measurements (mol, value_observed) VALUES
  ('COc1ccc(-c2nn3ncccc3c2-c2ccnc(Nc3cccc(C(F)(F)F)c3)n2)cc1', '5.31%'),
  ('COC(=O)c1ccc2c(c1)C(=Cc1cc(Br)c(O)c(Br)c1)C(=O)N2', '12.3%'),
  ('NS(=O)(=O)c1ccc(-c2cc3ccncc3cc2OCc2ccccc2)cc1', '6.32%'),
  ('CC(C)c1ccc(Nc2nccc(-c3cnn4ncccc34)n2)cc1', '55.2%');

Hi! What's the reported inhibition for `COc1cc2ncnc(Nc3ccc(C)c(O)c3)c2cc1OC` on Platelet-derived growth factor receptor alpha (Homo sapiens), P16234 [V561D]?
97.8%

// next record `COc1ccc2ncnc(Nc3ccc(OCc4ccccc4)cc3)c2c1`
4.16%

---

- target: Homeodomain-interacting protein kinase 4 (Homo sapiens) (UniProt Q8NE63);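 also: reported as mean inhibition, part of the GSK PKIS dataset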
- Sequence (Q8NE63 whole entry): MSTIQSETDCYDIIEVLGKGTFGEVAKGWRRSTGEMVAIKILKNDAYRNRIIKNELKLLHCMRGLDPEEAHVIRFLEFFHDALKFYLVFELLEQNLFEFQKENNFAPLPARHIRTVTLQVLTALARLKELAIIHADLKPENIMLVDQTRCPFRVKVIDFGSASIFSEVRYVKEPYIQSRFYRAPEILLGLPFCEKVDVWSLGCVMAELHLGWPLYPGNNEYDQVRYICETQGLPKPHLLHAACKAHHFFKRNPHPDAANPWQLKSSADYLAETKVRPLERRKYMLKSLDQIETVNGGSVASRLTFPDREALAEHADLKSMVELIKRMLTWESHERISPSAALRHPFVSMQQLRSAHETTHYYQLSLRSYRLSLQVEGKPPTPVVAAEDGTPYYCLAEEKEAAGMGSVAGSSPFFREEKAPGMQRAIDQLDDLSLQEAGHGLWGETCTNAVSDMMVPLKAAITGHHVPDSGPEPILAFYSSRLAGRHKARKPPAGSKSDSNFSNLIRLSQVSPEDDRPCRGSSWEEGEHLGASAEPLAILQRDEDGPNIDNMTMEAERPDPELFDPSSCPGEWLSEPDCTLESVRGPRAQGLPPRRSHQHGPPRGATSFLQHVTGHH
- applied conditions: at 0.1 µM
// reported inhibition per item
Remember to follow the number with its unit.

INSERT INTO assay_data (mol, quantity_measured, value_observed) VALUES
  ('COc1cc2ncnc(Nc3ccc(C)c(O)c3)c2cc1OC', 'inhibition', '3.31%'),
  ('Cc1cc(O)cc(C)c1/C=C/c1cncc(C(=O)N(C)C)c1', 'inhibition', '4.28%'),
  ('OCc1ccc(-c2nc(-c3ccccn3)c(-c3ccc4c(c3)OCO4)[nH]2)cc1', 'inhibition', '1.72%');

Item under review: `CN(C)CCCn1c(-c2nonc2N)nc2cnccc21` . Reported inhibition?
0.39%

// next record `O=C(Nc1ccc(Oc2ccc3[nH]c(NC(=O)c4ccco4)nc3c2)cc1)Nc1cc(C(F)(F)F)ccc1F`
13.6%

// next record `FC(F)(F)c1ccc(-c2nn3ncccc3c2-c2ccnc(Nc3ccc4c(c3)OCCO4)n2)cc1`
9.55%

// next record `CS(=O)(=O)Nc1cccc(-c2ccc3c(NC(=O)C4CC4)n[nH]c3c2)c1`
-0.79%

// next record `COc1cc(Nc2nccc(-c3cnn4ncccc34)n2)cc(OC)c1`
30.6%

// next record `Cc1ccc(Nc2ccnc(Nc3cccc(C(N)=O)c3)n2)cc1O`
2.33%

// next record `COC(=O)c1cncc(/C=C/c2c(C)cc(O)cc2C)c1`
2.51%

// next record `NS(=O)(=O)c1cccc(Nc2cc(-c3ccc(F)cc3)n[nH]2)c1`
1.27%

// next record `CN1CCN(C(=O)c2ccc(NC(=O)Nc3ccc(N(C)c4ccnc(Nc5ccc(CS(C)(=O)=O)cc5)n4)cc3)cc2)CC1`
0.53%

// next record `c1ccc(Cc2nc3ccc(Nc4ncnc5ccccc45)cc3[nH]2)cc1`
4.87%

// next record `NS(=O)(=O)c1ccc(N/N=C2\C(=O)Nc3ccc(Cl)cc32)cc1`
2.99%

// next record `Cc1cc(-c2ccccn2)cc(C)c1/C=C/c1cncc(-c2nn[nH]n2)c1`
1.94%

---

- target: CDK3/Cyclin E (Homo sapiens) (UniProt P24864+Q00526);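 also: each figure is a mean percent inhibition of the CDK3/cyclin E complex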
- Sequence (P24864 whole entry, looked up): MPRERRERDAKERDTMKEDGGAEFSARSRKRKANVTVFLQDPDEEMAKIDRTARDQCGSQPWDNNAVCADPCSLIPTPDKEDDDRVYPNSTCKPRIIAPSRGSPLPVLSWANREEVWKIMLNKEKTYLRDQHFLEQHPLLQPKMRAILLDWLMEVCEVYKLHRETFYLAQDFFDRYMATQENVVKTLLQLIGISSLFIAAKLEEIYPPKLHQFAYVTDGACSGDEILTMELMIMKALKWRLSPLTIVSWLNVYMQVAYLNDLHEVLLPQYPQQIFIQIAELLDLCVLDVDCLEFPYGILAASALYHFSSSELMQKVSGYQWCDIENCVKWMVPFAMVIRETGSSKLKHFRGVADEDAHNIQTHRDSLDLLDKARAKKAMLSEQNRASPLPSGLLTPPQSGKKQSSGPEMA
- Sequence (Q00526 whole entry, looked up): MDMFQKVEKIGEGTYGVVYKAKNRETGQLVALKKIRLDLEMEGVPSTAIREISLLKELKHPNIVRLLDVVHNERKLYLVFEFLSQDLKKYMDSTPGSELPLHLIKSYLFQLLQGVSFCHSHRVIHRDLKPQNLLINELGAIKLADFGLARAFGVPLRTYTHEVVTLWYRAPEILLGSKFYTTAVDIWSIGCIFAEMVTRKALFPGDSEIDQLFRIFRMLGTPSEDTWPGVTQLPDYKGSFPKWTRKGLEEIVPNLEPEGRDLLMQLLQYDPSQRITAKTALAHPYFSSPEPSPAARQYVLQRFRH
- applied conditions: at 1 µM
quantity measured: inhibition (%)
The response must be a number in % with no trailing unit.

A selection of reference data follows.
INSERT INTO results (mol, value_observed) VALUES
  ('NS(=O)(=O)c1ccc(NC=C2C(=O)Nc3ccc4ncsc4c32)cc1', 97.8),
  ('COc1cccc(-n2ncc3c(N/N=C/c4ccc(S(C)(=O)=O)cc4)ncnc32)c1', 20.8),
  ('O=C1Nc2ccc(-c3cccnc3)cc2C1=Cc1cc(Br)c(O)c(Br)c1', 2.98),
  ('COC(=O)c1ccc2c(c1)C(=Cc1cc(Br)c(O)c(Br)c1)C(=O)N2', -1.48),
  ('O=S(=O)(CCOCc1ccc(-c2ccc3ncnc(Nc4ccc(OCc5cccc(F)c5)c(Cl)c4)c3c2)o1)c1ccccc1', -2.84);

Hi! What's the reported inhibition for `Cc1ccc(C(=O)NC2CC2)cc1-c1ccc2[nH]ncc2c1` on CDK3/Cyclin E (Homo sapiens) (UniProt P24864+Q00526)?
0.41

// next record `Nc1ccc(C#Cc2cncnc2Nc2ccc(OCc3cccc(F)c3)c(Cl)c2)cc1`
-1.01
